# TEST DETAILS: self-splicing fitness, log relative to wild type (ln ratio); higher = more splicing; Tetrahymena group I intron in knt gene, E. coli kanamycin selection, DiMSum; sequences stand for … in CUCUCU…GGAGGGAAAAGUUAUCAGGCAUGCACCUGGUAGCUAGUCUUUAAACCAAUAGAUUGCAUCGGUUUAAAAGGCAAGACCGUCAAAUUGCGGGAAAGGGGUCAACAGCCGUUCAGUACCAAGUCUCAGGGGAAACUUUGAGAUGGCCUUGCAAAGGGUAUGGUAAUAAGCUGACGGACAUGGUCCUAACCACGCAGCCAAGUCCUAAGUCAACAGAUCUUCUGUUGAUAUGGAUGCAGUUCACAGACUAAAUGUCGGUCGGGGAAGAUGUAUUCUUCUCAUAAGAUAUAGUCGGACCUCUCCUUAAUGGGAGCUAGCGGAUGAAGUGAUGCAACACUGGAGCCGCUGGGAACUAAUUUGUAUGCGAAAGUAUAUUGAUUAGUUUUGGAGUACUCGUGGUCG;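 also: selection with 25 µg/mL kanamycin versus none on LB agar overnight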
# DETAILS: 30 °C
READOUT TYPE: self-splicing fitness (ln)
# answer = number (no unit)

Q: For the sequence shown here, `GGGGAGCAAUAUUACGUGGC` , give the reported self-splicing fitness (ln).
Result: -3.07

Q: Item: `UGGAAGCAAUAUUACGUUGU`
Result: -3.64

Q: Item: `GAUCAGCAAUAUUACGGCAU`
Result: -0.0116

Q: Item: `CAACAGCAAUAUUACGUUUG`
Result: -3.3

Q: Item: `CGGUAGCAAUAUUACGGGUC`
Result: -4.51

Q: Item: `AGAGAGCAAUAUUACGGGUU`
Result: -4.74

Q: Item: `UAGGAGCAAUAUUACGCGCA`
Result: -0.955

Q: Item: `GACUAGCAAUAUUACGGACC`
Result: -1.77

----------
# TEST DETAILS: self-splicing fitness, log relative to wild type (ln ratio); higher = more splicing; Tetrahymena group I intron in knt gene, E. coli kanamycin selection, DiMSum; sequences stand for … in CUCUCU…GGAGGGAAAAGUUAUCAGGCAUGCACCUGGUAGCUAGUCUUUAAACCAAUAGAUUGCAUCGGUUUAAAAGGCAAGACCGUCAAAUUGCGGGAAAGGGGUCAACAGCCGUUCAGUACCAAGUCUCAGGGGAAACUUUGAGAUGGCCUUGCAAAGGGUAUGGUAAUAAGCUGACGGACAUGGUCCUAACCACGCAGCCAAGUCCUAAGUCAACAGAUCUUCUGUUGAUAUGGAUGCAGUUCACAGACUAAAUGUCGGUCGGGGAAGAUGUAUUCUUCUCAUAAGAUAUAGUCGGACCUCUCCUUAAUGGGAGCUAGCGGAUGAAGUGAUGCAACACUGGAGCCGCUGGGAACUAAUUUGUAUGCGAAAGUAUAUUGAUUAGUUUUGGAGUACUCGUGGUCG
# DETAILS: 37 °C
Give true (1) when the value for self-splicing fitness (ln) is at least -2. Give false (0) when it is less.

Q: API: above_or_equal(metric=self-splicing fitness (ln), cutoff=-2) for item `UGAGAGCAAUAUUACGUCAG`
Result: false (0)

Q: Item: `UCAUAGCAAUAUUACGCAAC`
Result: true (1)

Q: Item: `GAGUAGCAAUAUUACGUGCA`
Result: true (1)

Q: Item: `UAUAAGCAAUAUUACGGGCG`
Result: true (1)

Q: Item: `GCACAGCAAUAUUACGCACG`
Result: true (1)

Q: Item: `AGGCAGCAAUAUUACGGUGG`
Result: false (0)

Q: Item: `AUUAAGCAAUAUUACGAGCA`
Result: true (1)

Q: Item: `AGAAAGCAAUAUUACGUCAC`
Result: false (0)

Q: Item: `GUUCAGCAAUAUUACGGUAC`
Result: true (1)

Q: Item: `UGAUAGCAAUAUUACGGCCU`
Result: true (1)

Q: Item: `AACGAGCAAUAUUACGUAUA`
Result: false (0)

Q: Item: `GGUCAGCAAUAUUACGCUGC`
Result: false (0)

Q: Item: `GUACAGCAAUAUUACGCCCC`
Result: true (1)

Q: Item: `GAUAAGCAAUAUUACGUGUU`
Result: false (0)

Q: Item: `GUCGAGCAAUAUUACGAAUU`
Result: true (1)

Q: Item: `GAGGAGCAAUAUUACGUGCC`
Result: false (0)

Q: Item: `UUGGAGCAAUAUUACGGCGG`
Result: true (1)

Q: Item: `GACAAGCAAUAUUACGUGGG`
Result: true (1)

Q: Item: `UAGAAGCAAUAUUACGGUAG`
Result: true (1)

Q: Item: `AUUAAGCAAUAUUACGCAGA`
Result: true (1)

Q: Item: `UUAGAGCAAUAUUACGGAUU`
Result: false (0)

Q: Item: `UUGCAGCAAUAUUACGGUGG`
Result: true (1)

Q: Item: `GGGUAGCAAUAUUACGUUAU`
Result: true (1)

Q: Item: `ACUCAGCAAUAUUACGUCCU`
Result: true (1)

Q: Item: `UCGAAGCAAUAUUACGCGAC`
Result: false (0)

Q: Item: `GGCCAGCAAUAUUACGGAAU`
Result: true (1)

Q: Item: `ACACAGCAAUAUUACGUCAC`
Result: false (0)

Q: Item: `AAAAAGCAAUAUUACGGUCA`
Result: true (1)

Q: Item: `GCUAAGCAAUAUUACGACUU`
Result: true (1)

Q: Item: `GGGCAGCAAUAUUACGCAGG`
Result: true (1)

Q: Item: `AGUUAGCAAUAUUACGGGUG`
Result: true (1)

Q: Item: `CUCAAGCAAUAUUACGCGUA`
Result: true (1)

Q: Item: `UAAUAGCAAUAUUACGGGAU`
Result: false (0)

Q: Item: `CGGUAGCAAUAUUACGAUUA`
Result: true (1)

Q: Item: `UGCCAGCAAUAUUACGCCAC`
Result: false (0)

Q: Item: `UGGAAGCAAUAUUACGCAAG`
Result: true (1)

Q: Item: `AUCGAGCAAUAUUACGACGG`
Result: true (1)

Q: Item: `CCUGAGCAAUAUUACGGCCG`
Result: false (0)

Q: Item: `ACCUAGCAAUAUUACGUUCG`
Result: true (1)

Q: Item: `AGGGAGCAAUAUUACGCAGU`
Result: true (1)

Q: Item: `ACUAAGCAAUAUUACGCGUC`
Result: false (0)

Q: Item: `GGCAAGCAAUAUUACGAUAU`
Result: true (1)

Q: Item: `UGGCAGCAAUAUUACGUACC`
Result: true (1)

Q: Item: `UAGCAGCAAUAUUACGUAUU`
Result: true (1)

Q: Item: `CUACAGCAAUAUUACGCACG`
Result: true (1)

Q: Item: `CCGAAGCAAUAUUACGUUGU`
Result: false (0)

Q: Item: `CCUCAGCAAUAUUACGGGUG`
Result: true (1)

Q: Item: `AAGUAGCAAUAUUACGACCU`
Result: true (1)

Q: Item: `GCCCAGCAAUAUUACGGAGG`
Result: false (0)

Q: Item: `GAUUAGCAAUAUUACGGGGG`
Result: false (0)

Q: Item: `AAGUAGCAAUAUUACGAUGG`
Result: false (0)

Q: Item: `CGUGAGCAAUAUUACGUCGU`
Result: false (0)

Q: Item: `AAAAAGCAAUAUUACGAUUA`
Result: true (1)

Q: Item: `CCGCAGCAAUAUUACGCUCA`
Result: true (1)

Q: Item: `GAUUAGCAAUAUUACGCAAG`
Result: true (1)

Q: Item: `CGUAAGCAAUAUUACGGAAC`
Result: true (1)

Q: Item: `AACAAGCAAUAUUACGCGCA`
Result: true (1)

Q: Item: `CACGAGCAAUAUUACGAAAU`
Result: false (0)

Q: Item: `GGCAAGCAAUAUUACGUCUU`
Result: true (1)

Q: Item: `AGAAAGCAAUAUUACGCGAG`
Result: true (1)

Q: Item: `CGUGAGCAAUAUUACGAUUA`
Result: false (0)

Q: Item: `GCAAAGCAAUAUUACGACCA`
Result: true (1)

Q: Item: `CAUUAGCAAUAUUACGUACU`
Result: true (1)

Q: Item: `GCGUAGCAAUAUUACGUUAC`
Result: false (0)
